A collection of compounds and their measured Maximum % inhibition
# assay-system: human PCSK9 (Homo sapiens, UniProt Q8NBP7)
# Sequence (Q8NBP7 153-692): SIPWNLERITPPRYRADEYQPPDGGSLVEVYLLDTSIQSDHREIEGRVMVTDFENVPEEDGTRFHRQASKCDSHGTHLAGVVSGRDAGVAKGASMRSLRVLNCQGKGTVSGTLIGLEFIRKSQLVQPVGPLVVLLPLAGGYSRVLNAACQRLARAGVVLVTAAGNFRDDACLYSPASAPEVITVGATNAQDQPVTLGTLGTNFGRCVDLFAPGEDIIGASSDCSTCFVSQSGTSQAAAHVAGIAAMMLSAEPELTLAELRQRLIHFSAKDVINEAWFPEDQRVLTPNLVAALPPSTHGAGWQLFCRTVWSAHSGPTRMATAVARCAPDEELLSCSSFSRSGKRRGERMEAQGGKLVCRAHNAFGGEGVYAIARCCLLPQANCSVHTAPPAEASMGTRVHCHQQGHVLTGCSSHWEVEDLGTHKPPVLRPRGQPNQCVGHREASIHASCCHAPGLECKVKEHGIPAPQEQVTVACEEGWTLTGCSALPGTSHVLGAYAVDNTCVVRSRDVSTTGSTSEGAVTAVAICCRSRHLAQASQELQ
# Sequence (Q8NBP7 31-152 partner limits assumed): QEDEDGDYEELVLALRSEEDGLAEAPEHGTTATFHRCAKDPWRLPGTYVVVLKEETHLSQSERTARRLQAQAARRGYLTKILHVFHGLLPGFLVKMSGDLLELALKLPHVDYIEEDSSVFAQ
# protocol-summary: PCSK9 ligand binding assay (TR-FRET): interference with binding of human PCSK9 to human LDLR
# test-parameters: PCSK9 FRET assay, efficacy (Amax); 0% = DMSO, 100% = 1 uM unlabeled human PCSK9
Bridge positions count the residues as written; N and C are the ends. Square brackets hold non-standard residues; d marks the D form. Peptide text beside a SMILES is read from it. Phe(4-CF3) = N[C@@H](Cc1ccc(C(F)(F)F)cc1)C(=O)O; Bip = N[C@@H](Cc1ccc(-c2ccccc2)cc1)C(=O)O; Phe(4-Cl) = N[C@@H](Cc1ccc(Cl)cc1)C(=O)O; NMeA = CN[C@@H](C)C(=O)O
Number in %, nothing else.

Below: 3 compounds and their reported Maximum % inhibition.
- compound: "CC(C)[C@@H]1NC(=O)[C@H](Cc2ccccc2)NC(=O)CSC[C@@H](C(=O)NCC(N)=O)NC(=O)[C@@H]2CCCN2C(=O)[C@H](CCCNC(=N)N)NC(=O)[C@H](CCC(=O)O)NC(=O)[C@H](C)N(C)C(=O)[C@H](Cc2ccc(C(F)(F)F)cc2)NC(=O)[C@H](C)N(C)C(=O)[C@H](Cc2ccc(C(F)(F)F)cc2)NC(=O)[C@H]([C@@H](C)O)NC(=O)[C@H]([C@@H](C)O)NC(=O)[C@H](CO)NC1=O [Example 1-11] ({CH2CO}-FVSTT[Phe(4-CF3)][NMeA][Phe(4-CF3)][NMeA]ERPCG-NH2; thioether N-13)"
  unit-annotation: "%"
  Maximum % inhibition: 55
- compound: "CC(C)[C@@H]1NC(=O)[C@H](Cc2ccccc2)NC(=O)CSC[C@@H](C(=O)NCC(N)=O)NC(=O)[C@@H]2CCCN2C(=O)[C@H](CO)NC(=O)[C@H](CC(=O)O)NC(=O)[C@H](C)N(C)C(=O)[C@H](Cc2ccc(-c3ccccc3)cc2)NC(=O)[C@H](C)N(C)C(=O)[C@H](Cc2ccc(-c3ccccc3)cc2)NC(=O)[C@H]([C@@H](C)O)NC(=O)[C@H]([C@@H](C)O)NC(=O)[C@H](CO)NC1=O [Example 1-8] ({CH2CO}-FVSTT[Bip][NMeA][Bip][NMeA]DSPCG-NH2; thioether N-13)"
  unit-annotation: "%"
  Maximum % inhibition: 58
- compound: "CC(C)[C@@H]1NC(=O)[C@H](Cc2ccccc2)NC(=O)CSC[C@@H](C(N)=O)NC(=O)[C@@H]2CCCN2C(=O)[C@H](C)NC(=O)[C@H](CC(N)=O)NC(=O)[C@H](C)N(C)C(=O)[C@H](Cc2ccc(Cl)cc2)NC(=O)[C@H](C)N(C)C(=O)[C@H](Cc2ccccc2)NC(=O)[C@H]([C@@H](C)O)NC(=O)[C@H]([C@@H](C)O)NC(=O)[C@H](C)NC1=O [Example 2-5] ({CH2CO}-FVATTF[NMeA][Phe(4-Cl)][NMeA]NAPC-NH2; thioether N-13)"
  unit-annotation: "%"
  Maximum % inhibition: 46

# input for lookup
Give Maximum % inhibition for the following compound: CC(C)[C@@H]1NC(=O)[C@H](Cc2ccccc2)NC(=O)CSC[C@@H](C(=O)NCC(N)=O)NC(=O)[C@@H]2CCCN2C(=O)[C@H](CCCNC(=N)N)NC(=O)[C@H](CC(=O)O)NC(=O)[C@H](C)N(C)C(=O)[C@H](Cc2ccc(-c3ccccc3)cc2)NC(=O)[C@H](C)N(C)C(=O)[C@H](Cc2ccc(-c3ccccc3)cc2)NC(=O)[C@H]([C@@H](C)O)NC(=O)[C@H]([C@@H](C)O)NC(=O)[C@@H]2CCCN2C1=O [Example 1-19] ({CH2CO}-FVPTT[Bip][NMeA][Bip][NMeA]DRPCG-NH2; thioether N-13)
38
